Ki reference
target: human NK-2 receptor (Homo sapiens (Human), UniProt P21452)
Sequence (P21452 whole entry): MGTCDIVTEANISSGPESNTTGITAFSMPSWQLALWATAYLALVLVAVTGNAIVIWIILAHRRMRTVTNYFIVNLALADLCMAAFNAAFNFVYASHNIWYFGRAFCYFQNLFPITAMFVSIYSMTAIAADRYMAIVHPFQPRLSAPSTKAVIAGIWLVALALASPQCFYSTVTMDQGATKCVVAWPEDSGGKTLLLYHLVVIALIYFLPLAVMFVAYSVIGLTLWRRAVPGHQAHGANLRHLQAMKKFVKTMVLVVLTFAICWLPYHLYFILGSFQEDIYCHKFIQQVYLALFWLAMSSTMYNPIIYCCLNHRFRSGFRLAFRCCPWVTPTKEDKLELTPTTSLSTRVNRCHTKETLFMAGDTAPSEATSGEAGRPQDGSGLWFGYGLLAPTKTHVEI

Worked cases, answers included:
{"compound": "Cc1nsc(-c2nnc3n2CCN(C(=O)c2ccc(F)c(F)c2)C3C)n1 (racemic) [Compound 32]", "observed-measurement": "> 30 µM"}
{"compound": "CCc1nsc(-c2nnc3n2CCN(C(=O)c2ccc(F)cc2)[C@@H]3C)n1 [Compound 2]", "observed-measurement": "> 30 µM"}
{"compound": "Cc1nsc(-c2nnc3n2CCN(C(=O)c2ccc(Cl)c(Cl)c2)[C@@H]3C)n1 [Compound 1]", "observed-measurement": "7.5 µM"}
{"compound": "Cc1nsc(-c2nnc3n2CCN(C(=O)c2ccc(Cl)c(Cl)c2)C3C)n1 (racemic) [Compound 38]", "observed-measurement": "28 µM"}
{"compound": "CC(F)c1noc(-c2nnc3n2CCN(C(=O)c2ccc(F)cc2)[C@@H]3C)n1 (some centres unmarked) [Compound 45]", "observed-measurement": "> 30 µM"}
{"compound": "Cc1nsc(-c2nnc3n2CCN(C(=O)c2cc(F)cc(F)c2)[C@@H]3C)n1 [Compound 17]", "observed-measurement": "> 30 µM"}
{"compound": "Cc1nsc(-c2nnc3n2CCN(C(=O)c2ccc(F)c(F)c2F)C3C)n1 (racemic) [Compound 33]", "observed-measurement": "> 30 µM"}

Alright, here's another compound for you.
Ask: Identify measured Ki corresponding to COc1cc(C(=O)N2CCn3c(-c4nc(C)ns4)nnc3[C@H]2C)ccc1F [Compound 25]
Result: > 30 µM

====

target: human NK-3 receptor (Homo sapiens (Human), UniProt P29371); assay: 3H-SB222200 binding competition assay with human NK-3 receptor; conditions: Table 2; 5 nM 3H-SB222200, CHO membranes; read-out: Competitive binding assay with human NK-3 receptor hNK-3 (Ki)
Sequence (P29371 whole entry): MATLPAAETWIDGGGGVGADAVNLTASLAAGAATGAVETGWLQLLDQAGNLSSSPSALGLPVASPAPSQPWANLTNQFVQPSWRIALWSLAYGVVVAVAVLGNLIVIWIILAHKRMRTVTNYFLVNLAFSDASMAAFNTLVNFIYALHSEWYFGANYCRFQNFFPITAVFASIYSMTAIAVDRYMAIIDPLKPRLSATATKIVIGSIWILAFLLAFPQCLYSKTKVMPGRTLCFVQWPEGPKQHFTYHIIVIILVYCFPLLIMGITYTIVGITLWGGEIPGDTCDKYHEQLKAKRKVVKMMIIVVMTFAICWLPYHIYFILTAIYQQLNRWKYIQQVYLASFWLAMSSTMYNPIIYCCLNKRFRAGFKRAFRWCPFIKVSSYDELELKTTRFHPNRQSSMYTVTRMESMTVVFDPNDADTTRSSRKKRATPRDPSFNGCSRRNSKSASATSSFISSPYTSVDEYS
observed-property: pKi
By convention, pKi is the negative base-10 log of a molar concentration.

Worked cases, answers included:
{"compound": "Cc1nsc(-c2nnc3n2CCN(C(=O)c2cc(F)cc(F)c2)[C@@H]3C)n1", "pKi": 7.29}
{"compound": "Cc1nsc(-c2nnc3n2CCN(C(=O)c2ccc(F)c(F)c2F)[C@@H]3C)n1", "pKi": 7.59}
{"compound": "Cc1nsc(-c2nnc3n2CCN(C(=O)c2ccc(F)c(Cl)c2)[C@@H]3C)n1", "pKi": 7.62}

Ask: Identify measured pKi corresponding to COc1cc(C(=O)N2CCn3c(-c4nc(C)ns4)nnc3[C@H]2C)ccc1F
Result: 7.07

Ask: Identify measured pKi corresponding to Cc1nsc(-c2nnc3n2CCN(C(=O)c2ccc(Cl)cc2)C3C)n1 (racemic)
Result: 7.39

Ask: Identify measured pKi corresponding to Cc1nsc(-c2nnc3n2CCN(C(=O)c2ccc(C#N)cc2)[C@@H]3C)n1
Result: 6.82

====

pKi: −log10 of the molar value.
Measured pKi (human NK-1 receptor (Homo sapiens (Human)))

{"compound": "Cc1nsc(-c2nnc3n2CCN(C(=O)c2ccc(F)cc2)C3C)n1 (racemic)", "observed-measurement": "< 4.52"}
{"compound": "Cc1ccc(C(=O)N2CCn3c(-c4nc(C)ns4)nnc3[C@H]2C)cc1", "observed-measurement": "< 4.52"}
{"compound": "Cc1noc(-c2nnc3n2CCN(C(=O)c2ccc(F)cc2)[C@@H]3C)n1", "observed-measurement": "< 4.52"}
{"compound": "Cc1nsc(-c2nnc3n2CCN(C(=O)c2ccc(Cl)c(Cl)c2)C3C)n1 (racemic)", "observed-measurement": 4.68}
{"compound": "Cc1nsc(-c2nnc3n2CCN(C(=O)c2cccc(Cl)c2)[C@@H]3C)n1", "observed-measurement": "< 4.52"}
{"compound": "Cc1nsc(-c2nnc3n2CCN(C(=O)c2ccc(F)c(F)c2F)C3C)n1 (racemic)", "observed-measurement": "< 4.52"}
{"compound": "Cc1nsc(-c2nnc3n2CCN(C(=O)c2ccc(Cl)cc2)C3C)n1 (racemic)", "observed-measurement": 4.49}
{"compound": "CC(F)c1noc(-c2nnc3n2CCN(C(=O)c2ccc(F)cc2)[C@@H]3C)n1 (stereo partly shown) [Compound 45]", "observed-measurement": "< 4.52"}
{"compound": "Cc1nsc(-c2nnc3n2CCN(C(=O)c2cc(F)c(F)c(F)c2F)[C@@H]3C)n1", "observed-measurement": "< 4.52"}
{"compound": "CCc1noc(-c2nnc3n2CCN(C(=O)c2ccc(-c4cccs4)cc2)[C@@H]3C)n1", "observed-measurement": 4.40}

Ask: Answer with pKi of Cc1nsc(-c2nnc3n2CCN(C(=O)c2ccc(F)cc2F)[C@@H]3C)n1 measured for human NK-1 receptor (Homo sapiens (Human)).
Result: < 4.52

Ask: Answer with pKi of C[C@@H]1c2nnc(-c3nc(C(C)(F)F)no3)n2CCN1C(=O)c1ccc(F)cc1 measured for human NK-1 receptor (Homo sapiens (Human)).
Result: < 4.52

Ask: Answer with pKi of Cc1nsc(-c2nnc3n2CCN(C(=O)c2ccccc2C)[C@@H]3C)n1 measured for human NK-1 receptor (Homo sapiens (Human)).
Result: < 4.52

Ask: Answer with pKi of Cc1nsc(-c2nnc3n2CCN(C(=O)c2ccc(F)c(F)c2)C3C)n1 (racemic) measured for human NK-1 receptor (Homo sapiens (Human)).
Result: < 4.52

Ask: Answer with pKi of CCc1nsc(-c2nnc3n2CCN(C(=O)c2ccc(F)cc2)[C@@H]3C)n1 measured for human NK-1 receptor (Homo sapiens (Human)).
Result: 4.62

Ask: Answer with pKi of CCc1nsc(-c2nnc3n2CCN(C(=O)c2ccc(F)cc2)C3C)n1 (racemic) measured for human NK-1 receptor (Homo sapiens (Human)).
Result: < 4.52

Ask: Answer with pKi of Cc1nsc(-c2nnc3n2CCN(C(=O)c2ccc(C#N)cc2)[C@@H]3C)n1 measured for human NK-1 receptor (Homo sapiens (Human)).
Result: < 4.52

Ask: Answer with pKi of Cc1nsc(-c2nnc3n2CCN(C(=O)c2cc(F)cc(F)c2)[C@@H]3C)n1 measured for human NK-1 receptor (Homo sapiens (Human)).
Result: < 4.52

Ask: Answer with pKi of CC(F)c1noc(-c2nnc3n2CCN(C(=O)c2ccc(F)cc2)[C@@H]3C)n1 (single isomer, unassigned) [Compound 45-2] measured for human NK-1 receptor (Homo sapiens (Human)).
Result: < 4.52

Ask: Answer with pKi of Cc1nsc(-c2nnc3n2CCN(C(=O)c2cccc(F)c2)[C@@H]3C)n1 measured for human NK-1 receptor (Homo sapiens (Human)).
Result: < 4.52

Ask: Answer with pKi of Cc1nsc(-c2nnc3n2CCN(C(=O)c2ccc(Cl)cc2)[C@@H]3C)n1 measured for human NK-1 receptor (Homo sapiens (Human)).
Result: < 4.52

Ask: Answer with pKi of CCc1noc(-c2nnc3n2CCN(C(=O)c2ccc(F)cc2)C3C)n1 (racemic) measured for human NK-1 receptor (Homo sapiens (Human)).
Result: < 4.52
